Entry source: paper PMC12668310

Target: mUSP18 (Mus musculus)
Construct: (46-368); His-tag (N); made in house
Sequence (Q9WTV6 46-368): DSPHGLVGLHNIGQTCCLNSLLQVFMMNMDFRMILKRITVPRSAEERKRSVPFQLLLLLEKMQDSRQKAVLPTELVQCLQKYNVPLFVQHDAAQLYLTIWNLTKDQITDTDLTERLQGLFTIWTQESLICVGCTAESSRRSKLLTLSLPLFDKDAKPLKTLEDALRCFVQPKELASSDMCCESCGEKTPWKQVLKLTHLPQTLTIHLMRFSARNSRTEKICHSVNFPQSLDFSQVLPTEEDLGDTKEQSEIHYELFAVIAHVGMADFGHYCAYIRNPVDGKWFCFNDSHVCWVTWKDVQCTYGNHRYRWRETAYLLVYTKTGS
Test: High-throughput screening, ISG15ct-RhoMP, single dose 1.25 µM
Assay type: biochemical, murine
Conditions: mUSP18 %inhibition; carboxylic acid (CA) with coupling reagents DIC/HOBT; read-out: %inh CA + DIC/HOBT
Experimental endpoint: inhibition at 1.25 µM (%)
Just the number please, in %, no unit attached.

# Molecule, inhibition at 1.25 µM, %
rows = [
    ("CN(Cc1ccccc1)S(=O)(=O)c1ccc(C(=O)O)cc1 [CA267]", 5.3),
    ("O=C(O)c1ccnn1C1CCC1 [CA316]", -3.62),
    ("O=C(O)C1CC(=O)N(OCc2ccccc2)C1 (stereo not drawn) [CA452]", -8.76),
    ("O=C(O)c1cc(Cn2cc(Cl)cn2)cs1 [CA275]", 6.3),
]

Okay, next one:
// inhibition at 1.25 µM lookup, molecule = O=C(O)c1cc(C2CC2)n[nH]1 [CA293] , result: 14.3

* * *

Target: USP16 (Homo sapiens, UniProt Q9Y5T5)
Sequence (Q9Y5T5 22-823): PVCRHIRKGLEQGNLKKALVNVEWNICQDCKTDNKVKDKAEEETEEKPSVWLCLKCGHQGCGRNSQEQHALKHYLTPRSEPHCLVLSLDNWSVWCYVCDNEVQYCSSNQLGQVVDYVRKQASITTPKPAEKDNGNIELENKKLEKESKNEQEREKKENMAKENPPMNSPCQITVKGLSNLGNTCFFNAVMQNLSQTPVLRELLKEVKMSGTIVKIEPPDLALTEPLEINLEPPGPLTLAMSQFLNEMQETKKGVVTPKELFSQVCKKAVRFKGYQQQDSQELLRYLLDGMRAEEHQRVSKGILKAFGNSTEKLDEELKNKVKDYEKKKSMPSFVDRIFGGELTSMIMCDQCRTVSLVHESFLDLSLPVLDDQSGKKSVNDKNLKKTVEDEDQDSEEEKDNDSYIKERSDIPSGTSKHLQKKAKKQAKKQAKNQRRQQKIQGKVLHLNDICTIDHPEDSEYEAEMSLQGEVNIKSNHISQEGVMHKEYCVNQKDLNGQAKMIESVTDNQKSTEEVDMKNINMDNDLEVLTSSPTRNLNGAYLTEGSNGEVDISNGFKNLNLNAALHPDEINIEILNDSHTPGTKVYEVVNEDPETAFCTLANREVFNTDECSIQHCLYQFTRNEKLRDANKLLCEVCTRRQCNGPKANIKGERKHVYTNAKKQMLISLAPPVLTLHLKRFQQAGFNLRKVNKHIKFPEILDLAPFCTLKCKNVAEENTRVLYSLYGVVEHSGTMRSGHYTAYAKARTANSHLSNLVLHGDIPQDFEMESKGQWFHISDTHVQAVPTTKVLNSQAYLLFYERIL
Assay: High-throughput screening, Ub-RhoMP, single dose 1.25 µM
Type: biochemical
Parameters: (22-823); His-tag (N); made in house
Settings: individual amine building block (plate NCN-5)
Experimental endpoint: BB %inhibition USP16 (%)
Use % as the unit, but write only the number.

# Compound, BB %inhibition USP16 [%]
records = [
    ("N#CN1CC[C@@H](NC(=O)c2ccc(CN)cc2)C1 [BB9]", -1.3),
    ("N#CN1C[C@@H](F)[C@@H](N)C1 [BB15]", -1.1),
    ("N#CN1C[C@H]2C[C@@H](N)C[C@H]2C1 [BB6]", 0.3),
    ("N#CN1C[C@H](N)[C@@H](O)C1 [BB13]", 4.4),
]

Documented BB %inhibition USP16 of N#CN1CC[C@H](N)C1 [BB3] : 5.8

Lookup result for N#CN1CCC[C@H](N)C1 [BB8] ; measured BB %inhibition USP16: -0.5

Measured BB %inhibition USP16 of N#CN1CC[C@@H](N)C1 [BB1] : 7.2

// field: BB %inhibition USP16; key: N#CN1CCC(n2cc(N)cn2)CC1 [BB16] ; value = -0.846

get_value(item= N#CN1CCC2(CCNC2)C1 (stereo not drawn) [BB14] , readout=BB %inhibition USP16) returns 5.9

* * *

Biological target: mUSP18 (Mus musculus, UniProt Q9WTV6)
Construct: (46-368); His-tag (N); made in house
Sequence (Q9WTV6 46-368): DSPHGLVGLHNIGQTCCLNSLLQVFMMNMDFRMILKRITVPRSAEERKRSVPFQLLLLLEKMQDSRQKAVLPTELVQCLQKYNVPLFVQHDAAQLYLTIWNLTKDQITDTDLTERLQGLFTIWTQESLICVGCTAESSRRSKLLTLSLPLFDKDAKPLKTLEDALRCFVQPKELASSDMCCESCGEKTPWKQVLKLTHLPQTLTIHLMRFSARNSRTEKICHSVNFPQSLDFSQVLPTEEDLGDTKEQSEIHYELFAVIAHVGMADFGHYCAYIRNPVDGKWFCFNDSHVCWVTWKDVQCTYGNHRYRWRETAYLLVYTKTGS
Assay: High-throughput screening, ISG15ct-RhoMP, single dose 1.25 µM
Type: biochemical, murine
Settings: mUSP18 %inhibition; carboxylic acid (CA) with coupling reagents DIC/HOBT; read-out: %inh CA + DIC/HOBT
Experimental endpoint: inhibition at 1.25 µM (%)
// units = %; emit number, no label

Reference set (10 entries):
# Molecule, Experimental endpoint, Value
records = [
    ("COc1ccc(CC(=O)O)cc1S(=O)(=O)N1CCOCC1 [CA340]", "inhibition at 1.25 µM", -0.36),
    ("Cc1cc(C)cc(N(CCC(=O)O)S(=O)(=O)c2ccc(Cl)cc2)c1 [CA381]", "inhibition at 1.25 µM", -13.7),
    ("O=C(O)c1coc(C#Cc2ccccc2)c1 [CA393]", "inhibition at 1.25 µM", -1.99),
    ("CN1CCN(C(=O)[1C@@H]2[1C@@H](C(=O)O)C2(C)C)CC1 [CA273]", "inhibition at 1.25 µM", 5.09),
    ("COc1ccc(CN2CCC2C(=O)O)cc1 (stereo not drawn) [CA312]", "inhibition at 1.25 µM", -3.27),
    ("Cc1nc(-c2ccco2)ccc1C(=O)O [CA331]", "inhibition at 1.25 µM", -2.82),
    ("O=C(O)C1CCN1C1CCCC1 (stereo not drawn) [CA402]", "inhibition at 1.25 µM", -9.76),
    ("O=C(O)c1cnoc1-c1cccs1 [CA104]", "inhibition at 1.25 µM", 34),
    ("O=C(O)Cc1ccc(NS(=O)(=O)c2c(Cl)cccc2Cl)cc1 [CA141]", "inhibition at 1.25 µM", 2.69),
    ("O=C(O)c1occc1-c1ccccc1 [CA354]", "inhibition at 1.25 µM", -1.55),
]

Lab note: O=C(O)c1ncsc1Cc1ccccc1 [CA443] gave inhibition at 1.25 µM of 12

For reference, reported inhibition at 1.25 µM for C#CCCC(=O)O [CA014] stands at -9.92
